molecular target: Leucine aminopeptidase (Plasmodium falciparum (isolate 3D7)); assay: P. falciparum M17LAP inhibitors, primary screen, biochemical, fluorogenic H-Leu-NHMec substrate, 1536-well (AID 1619); conditions: recombinant M17LAP, H-Leu-NHMec fluorogenic kinetic assay; at 30 µM; stronger effect = higher value;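 further: plate controls were full reaction with DMSO carrier for no effect and no enzyme background for full effect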
About 830 (0.38%) of roughly 220,000 compounds were called active. Only a sample is shown. Results with a measured potency or affinity are listed apart.
inhibition reference

// solved cases for inhibition follow
compound | inhibition
O=C(Cn1cnc2cc([N+](=O)[O-])ccc2c1=O)Nc1ccc2c(c1)CCC2 | 25.1% (inactive)
Cc1ccc(-n2nc(C)c3c2OC(N)=C(C#N)C3c2ccncc2)cc1 (centres undefined) | 21.6% (inactive)

Q) Name the recorded inhibition of the item O=[N+]([O-])c1ccc(-c2cc(-c3ccncc3)nc3ccc4ccccc4c23)cc1 in your answer.
A) -5.09% (inactive)

Q) Name the recorded inhibition of the item N#Cc1c(NC(=O)CCn2cnc3ccccc3c2=O)oc(-c2ccccc2)c1-c1ccccc1 in your answer.
A) -1.46% (inactive)

Q) Name the recorded inhibition of the item CCCSc1ccc(C(=O)Nc2ccc(Cl)cc2)cn1 in your answer.
A) -6.5% (inactive)

Q) Name the recorded inhibition of the item COc1ccc(NC(=O)C(c2ccc(C)cc2)N(C)C(=O)c2cnccn2)cc1 (centres undefined) in your answer.
A) 1.36% (inactive)

Q) Name the recorded inhibition of the item CC(C)(C)c1cn(-c2ccccc2)c(=S)[nH]1 in your answer.
A) 1.06% (inactive)
